Cited source: ChEMBL document CHEMBL4043263

experiment: Drug excretion in Beagle dog urine at 1 mg/kg, po administered via gavage by LC-MS/MS analysis; format: ADME, organism-based, Canis lupus familiaris; conditions: read-out: Drug excretion
observed.property: dose excreted

State the recorded dose excreted for this entry: "CCCCc1cc(OC2CCN(CCCCNS(=O)(=O)CC)CC2)c2ncccc2c1.Cl.Cl"
< 0.1%

---

experiment: Elimination half life in CD Sprague-Dawley rat at 1 mg/kg, iv by LC-MS/MS analysis; assay type: ADME, organism-based; details: in vivo, read-out: beta t1/2 (converted)
observed.property: half-life (h)
Enter your answer as a number in h; do not include the unit.

Sample "CCCCc1cc(OC2CCN(CCCCNS(=O)(=O)CC)CC2)c2ncccc2c1.Cl.Cl" — what was its half-life?
1.8

---

experiment: Drug excretion in Beagle dog urine at 1 mg/kg, iv administered via bolus dose by LC-MS/MS analysis
observed.property: dose excreted

Find the recorded dose excreted belonging to "CCCCc1cc(OC2CCN(CCCCNS(=O)(=O)CC)CC2)c2ncccc2c1.Cl.Cl" and report it.
< 1%

---

assay: Volume of distribution at steady state in Beagle dog at 0.5 mg/kg, iv administered via bolus dose or 1 mg/kg, po administered via gavage by LC-MS/MS analysis; type: ADME, organism-based, Canis lupus familiaris; settings: in vivo, read-out: Vdss
observed.property: Vd (L/kg)
Report the figure in L/kg without appending any unit label.

What does the data say about its Vd? Entry: "CCCCc1cc(OC2CCN(CCCCNS(=O)(=O)CC)CC2)c2ncccc2c1.Cl.Cl"
4.5
